Test system: OV90
Protocol text: Primary qHTS to identify gynecologic anti-cancer compounds using libraries of approved drugs and bioactive compounds (AID 1345084); further: nearly all actives have a fitted effect of over 55% in size
Conditions used: Gynecologic cancer cell panel viability, ATPlite luminescence, 48 h; series mostly up to 57.5 µM
Records with an inconclusive call do not appear. Active and inactive are the calls of the source. The call rests on the fitted dose curve; in most records, active means well fitted cell-killing curve with a large enough effect; inconclusive means small, poorly fitted or top-dose-only effect, or effect the other way; inactive means flat fitted curve, though single readings scatter.
Possible outcomes: y = active, n = inactive

Molecule	Class label
CC1(N2CCC(n3c([C@@H]4CCCNC4)nc4ccccc43)CC2)CCCCCCC1	y
CC(=O)N(C)c1cccc(-c2ccnc3c(C(=O)c4cccs4)cnn23)c1	n
CC(=O)Nc1ccc(OC[C@](C)(O)C(=O)Nc2ccc([N+](=O)[O-])c(C(F)(F)F)c2)cc1	n
CCO/N=C(\CC)C1=C(O)CC(c2c(C)cc(C)cc2C)CC1=O (centres undefined)	n
CN[C@@H](C)[C@H](O)c1ccccc1	n
CCC1(CCC(C)C)C(=O)NC(=O)NC1=O	n
O=C(O)CNC(=O)c1c(O)c2ccccc2n(Cc2ccccc2)c1=O	n
O=C(Oc1ccc([N+](=O)[O-])cc1)N1CCC(C(O)(c2ccc3c(c2)OCO3)c2ccc3c(c2)OCO3)CC1	n
Nc1ccc([N+](=O)[O-])cc1	n

====

Protocol text: qHTS Screen of the MIPE 4.0 Collection Against Ewings Sarcoma (TC71) (AID 1259253); further: nearly all actives have a fitted effect of over 40% in size
Conditions used: TC71 Ewing sarcoma viability, CellTiter-Glo, 48 h; series mostly up to 45.8 µM
Results filed as inconclusive are left out. Active and inactive are the calls of the source. The call rests on the fitted dose curve; in most records, active means well fitted inhibition curve with a large enough effect; inconclusive means small, poorly fitted or top-dose-only effect; inactive means no such curve, though single readings can be large or run the other way.
Possible outcomes: t for active, f for inactive

Compound	Class label
CC[C@H]1C=CC=CC[C@@H](C)[C@H](O)[C@@](C)(O)C(=O)[C@@H](C)[C@H](O)[C@@H](C)C(=O)[C@@H](C)[C@H](O)[C@@H](C)C=CC(=O)O[C@@H]2[C@@H](C)[C@H](CC1)O[C@]1(CC[C@H](C)[C@H](C[C@@H](C)O)O1)[C@H]2C	t
CCOP(=O)(OCC)C(C)NC(=O)N(CCCl)N=O (stereo not given)	f
CCN1CCN(C(=O)Cc2ccc(Nc3ncc(F)c(Nc4ccc(C(=O)Nc5ccccc5Cl)cc4)n3)cc2)CC1	t
C=C[C@@H]1CN2CCC1C[C@H]2[C@H](O)c1ccnc2ccccc12 (stereo not given in full)	t
CN(C)[C@@H]1C(=O)C(C(N)=O)=C(O)[C@@]2(O)C(=O)C3=C(O)c4c(O)cccc4[C@@](C)(O)[C@H]3[C@H](O)[C@@H]12	f
C=CCON=C(C[C@H]1O[C@@H]2O[C@]3(C)CC[C@@H]4[C@H](C)CC[C@@H]([C@H]1C)[C@@]24OO3)[C@H]1O[C@@H]2O[C@]3(C)CC[C@H]4[C@H](C)CC[C@@H]([C@@H]1C)[C@@]24OO3	t
CC1=NN=C(c2ccc(N)cc2)c2cc3c(cc2C1)OCO3	f
CC(=Cc1csc(C)n1)[C@@H]1C[C@H]2O[C@@H]2CCC[C@H](C)[C@@H](O)[C@@H](C)C(=O)C(C)(C)[C@@H](O)CC(=O)O1	f
O=C(Nc1ccncc1)C(=O)c1cn(Cc2ccc(Cl)cc2)c2ccccc12	t
COc1ccc2c(c[n+](C)c3c4cc5c(cc4ccc23)OCO5)c1OC	t
CC[C@@H](C(N)=O)N1CCCC1=O	f
O=[N+]([O-])c1ncc[nH]1	f
CN[C@@H]1Cc2cccc3[nH]c(=O)n(c23)C1	f
Cc1nc(-c2ccc(-c3ccc(C(=O)N4CCc5cc6c(cc54)C4(CCN(C)CC4)CO6)cc3)c(C)c2)no1	f
CCNC(=O)C[C@@H]1N=C(c2ccc(Cl)cc2)c2cc(OC)ccc2-n2c(C)nnc21	t
CC(C)(O)C=CC(=O)[C@](C)(O)[C@H]1[C@H](O)C[C@]2(C)[C@@H]3CC=C4[C@@H](C=C(O)C(=O)C4(C)C)[C@]3(C)C(=O)C[C@@]12C	t
CC(=O)Nc1ccc(OC[C@](C)(O)C(=O)Nc2ccc([N+](=O)[O-])c(C(F)(F)F)c2)cc1	f
C[C@]12Cc3cn[nH]c3C[C@@H]1CC[C@@H]1[C@H]2CC[C@@]2(C)[C@H]1CC[C@]2(C)O	t
O=C1CCC[C@@H]2[C@H]3CCCN4CCC[C@@H](CN12)[C@@H]34	f
C[C@@H]1CC[C@@]2(OC1)O[C@H]1C[C@H]3[C@@H]4CC=C5C[C@@H](O[C@@H]6O[C@H](CO)[C@@H](O[C@@H]7O[C@@H](C)[C@H](O)[C@@H](O)[C@@H]7O)[C@H](O)[C@@H]6O[C@@H]6O[C@@H](C)[C@H](O)[C@@H](O)[C@@H]6O)CC[C@]5(C)[C@@H]4CC[C@]3(C)[C@@H]1[C@H]2C	t
